Tested Target: Cytochrome P450 2C19 (Homo sapiens, UniProt P33261)
Sequence (P33261 whole entry): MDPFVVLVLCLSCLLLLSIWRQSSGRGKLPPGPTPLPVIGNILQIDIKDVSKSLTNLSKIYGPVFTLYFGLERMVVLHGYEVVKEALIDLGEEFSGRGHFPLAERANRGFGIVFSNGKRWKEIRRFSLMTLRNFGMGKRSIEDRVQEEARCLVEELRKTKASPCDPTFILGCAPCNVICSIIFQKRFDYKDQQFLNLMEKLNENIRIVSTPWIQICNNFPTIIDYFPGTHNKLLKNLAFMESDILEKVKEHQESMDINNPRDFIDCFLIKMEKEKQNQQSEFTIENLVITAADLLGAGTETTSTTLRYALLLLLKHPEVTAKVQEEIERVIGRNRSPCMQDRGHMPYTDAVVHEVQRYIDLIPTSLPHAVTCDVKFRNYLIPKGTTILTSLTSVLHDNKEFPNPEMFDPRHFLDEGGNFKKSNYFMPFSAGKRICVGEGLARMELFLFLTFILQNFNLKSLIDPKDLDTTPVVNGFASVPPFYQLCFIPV
Property Label: IC50

Q) Checklist item: IC50 tested on Cytochrome P450 2C19 (Homo sapiens, UniProt P33261), entry O=C(COc1ccc(Br)cc1)Nc1ccc2nc[nH]c2c1 , value?
A) > 50 µM

----------
Tested Target: P2Y purinoceptor 6 (Homo sapiens)
Sequence (Q15077 whole entry): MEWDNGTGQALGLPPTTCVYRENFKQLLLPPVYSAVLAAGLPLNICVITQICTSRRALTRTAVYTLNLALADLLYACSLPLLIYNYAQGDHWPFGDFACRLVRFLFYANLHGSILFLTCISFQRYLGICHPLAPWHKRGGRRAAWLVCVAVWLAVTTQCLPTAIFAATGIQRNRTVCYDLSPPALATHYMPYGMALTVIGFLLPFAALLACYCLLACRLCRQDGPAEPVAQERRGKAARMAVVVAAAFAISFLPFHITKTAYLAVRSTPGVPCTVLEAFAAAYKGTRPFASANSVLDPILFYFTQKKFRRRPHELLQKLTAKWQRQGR
Experiment Notes: Inhibition of human P2Y6R stably expressed in UDP-stimulated HEK293 cells incubated for 0.5 hrs by IP3 production assay
Format: functional, cell-based
Property Label: IC50 (µM)
Give bare numbers, in µM.

Q) Endpoint output: IC50 of O=C(COc1ccc(Br)cc1)Nc1ccc2nc[nH]c2c1 . Value?
A) 89.7
